Experiment: Antiproliferative activity against human A549/DDP cells assessed as inhibition of cell growth measured after 48 hrs by MTT assay
Type: functional, cell-based
metric.name: IC50 (µM)
# output: bare number, implied unit µM

Requested field: IC50. Item: CCCc1cc(=O)[nH]c(SCC(=O)c2ccc3c(c2)CCCC(=O)N3)n1
5.51

###

Target: Aldo-keto reductase family 1 member C2 (Homo sapiens)
Sequence (P52895 whole entry): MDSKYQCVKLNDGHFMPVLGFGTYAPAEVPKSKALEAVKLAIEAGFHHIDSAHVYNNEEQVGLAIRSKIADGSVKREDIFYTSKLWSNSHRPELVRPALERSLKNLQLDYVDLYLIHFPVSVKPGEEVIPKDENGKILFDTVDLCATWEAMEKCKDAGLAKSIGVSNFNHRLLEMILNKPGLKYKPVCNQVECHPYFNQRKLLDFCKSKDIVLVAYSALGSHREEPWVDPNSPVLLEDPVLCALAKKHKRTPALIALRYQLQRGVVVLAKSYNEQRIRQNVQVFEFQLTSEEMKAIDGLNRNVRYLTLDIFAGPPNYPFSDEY
Assay: Inhibition of human recombinant AKR1C2 transfected in Escherichia coli BL21 (DE3) pLysS competent cells assessed as inhibition of NADP+ dependent oxidation of S-tetralol using S-tetralol as substrate incubated for 10 mins by fluorescence microplate reader assay
metric.name: pIC50
# pIC50: negative log10 of molar concentration; output just the value

CCOc1ccc2c(c1)CC(C(=O)N(C)Cc1cc(C(=O)O)c(C)o1)CO2 (stereo not given); 4.30

Requested field: pIC50. Item: Cc1oc(CN(C)C(=O)CCc2nc(C3CC3)no2)cc1C(=O)O
5.24

Requested field: pIC50. Item: CCCc1cc(=O)[nH]c(SCC(=O)c2ccc3c(c2)CCCC(=O)N3)n1
6.14
